These measurements were taken from ChEMBL document CHEMBL1140339.

Assay: Volume distribution after intravenous administration of 10 mg/kg
Details: rat, in vivo
Let's look at some compounds and their measured Vd.
property label: Vd (L/kg)

[[record]]
compound = "CO[C@H]1O[C@@H]2O[C@@]3(C)CC[C@H]4[C@H](C)CC[C@@H]([C@H]1C)[C@@]24OO3"
property_label = "Vd"
readout_number = 8

[[record]]
compound = "c1ccc(C2CCC3(CC2)OOC2(O3)C3CC4CC(C3)CC2C4)cc1 (stereo not drawn)"
property_label = "Vd"
readout_number = 5

[[record]]
compound = "CCOC(=O)N1CCC2(CC1)OOC1(O2)C2CC3CC(C2)CC1C3 (stereo not drawn)"
property_label = "Vd"
readout_number = 23

